- System Name: Galectin-3 (Homo sapiens)
- Sequence (P17931 whole entry): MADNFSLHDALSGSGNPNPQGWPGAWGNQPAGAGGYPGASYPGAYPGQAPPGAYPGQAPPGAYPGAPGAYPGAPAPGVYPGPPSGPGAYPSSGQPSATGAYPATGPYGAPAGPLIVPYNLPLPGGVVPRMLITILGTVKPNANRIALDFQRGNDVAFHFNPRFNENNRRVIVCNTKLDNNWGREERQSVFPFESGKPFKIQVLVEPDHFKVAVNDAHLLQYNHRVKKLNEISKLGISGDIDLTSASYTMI
- Test Protocol: Binding affinity to human galactin-3 assessed as dissociation constant by competitive fluorescence polarization assay
Assay Readout: Kd (µM)

// solved cases for Kd follow
[[record]]
test_smiles = "Cn1c(CO[C@@H]2[C@@H](O)[C@@H](Sc3ccc(Cl)c(Cl)c3)O[C@H](CO)[C@@H]2O)nc2ccc(C(=O)O)cc21"
system_name = "Galectin-3 (Homo sapiens)"
assay_readout = "Kd"
measurement = 5

[[record]]
test_smiles = "CO[C@@H]1O[C@H](CO)[C@H](O)[C@H](OCc2cn(-c3ccccc3C(=O)O)nn2)[C@H]1O"
system_name = "Galectin-3 (Homo sapiens)"
assay_readout = "Kd"
measurement = 470

[[record]]
test_smiles = "CO[C@@H]1O[C@H](CO)[C@H](O)[C@H](OCc2nc3ccccc3s2)[C@H]1O"
system_name = "Galectin-3 (Homo sapiens)"
assay_readout = "Kd"
measurement = 510

[[record]]
test_smiles = "CO[C@@H]1O[C@H](CO)[C@H](O)[C@H](OCc2cn(-c3cccc(C(=O)O)c3)nn2)[C@H]1O"
system_name = "Galectin-3 (Homo sapiens)"
assay_readout = "Kd"
measurement = 500


P. CCOC(=O)c1ccc2c(c1)nc(CO[C@H]1[C@@H](O)[C@@H](CO)O[C@@H](OC)[C@@H]1O)n2C
Q. O=C(O)c1ccc2nc(CO[C@@H]3[C@@H](O)[C@@H](Sc4ccc(Cl)c(Cl)c4)O[C@H](CO)[C@@H]3O)[nH]c2c1
Enquiry: Pick one: P or Q . Which one has the lower reported Kd? Respond using the label that marks the chosen record.
Return: Q
(Q: 4.1 µM, P: 2000 µM)
